# cell viability annotations
# Test system: NOMO1
# procedure.summary: cell viability relative to DMSO control; higher = less cytotoxic
# assay.conditions: RPMI 5 mM glucose + 10% dialyzed FBS; 48 h; 0.0211 µM
Kindly answer with a numeric value in %, unit omitted.

Sample `COC1=CC=C(C=C1)C/2=C/OC3=C(C(=CC(=C3)O)O)C2=O` — what was its cell viability? 130

Sample `COc1ccc(-c2nc(N3CCOCC3)c3sc(CN(C)c4ncc(C(=O)NO)cn4)cc3n2)cn1` — what was its cell viability? 73.7

Sample `CN1C[C@H]2c3ccccc3Oc3ccc(Cl)cc3[C@@H]2C1` — what was its cell viability? 94.2

Sample `C[S+]([O-])(=O)C1=CC=C(C=C1)C/2=C(/C(=O)OC2)C3=CC=CC=C3` — what was its cell viability? 111

Sample `C[S+](=O)([O-])N1CCc2c(-c3cnc(N)nc3)nc(N3CCOCC3)nc21` — what was its cell viability? 97.7
